Target: T1, Human BCMA (human, UniProt Q02223 1-54, limits assumed)
T1 construct: also called huBCMA; B-cell maturation antigen
T1 sequence (looked up): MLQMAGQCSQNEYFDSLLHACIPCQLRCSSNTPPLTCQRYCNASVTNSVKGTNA
Assay: SPR, IgG immobilised, human BCMA analyte
Protocol: All experiments were performed on a Bio-Rad Proteon XPR36 surface Plasmon resonance biosensor (Bio-Rad, Hercules, Calif.). […] The analysis temperature for the immobilization was 25° C. and the running buffer was HBS-T+(10 mM HEPES, 150 mM NaCl, 0.05% Tween-20, pH 7.4). […] The analysis temperature for the BCMA binding analysis was 37° C. or 25° C. in a running buffer of HBS-T+, supplemented with 1 mg/mL BSA. […] Immediately after the 50 nM BCMA injection, dissociation was monitored for 2 hours. […]
Consider the following binders; for each one, report its Kd.
One number for each entry, in nM.

Fill in Kd for record C01_Rd4_6nM_C26 (antibody, V domains shown, IgG) VH: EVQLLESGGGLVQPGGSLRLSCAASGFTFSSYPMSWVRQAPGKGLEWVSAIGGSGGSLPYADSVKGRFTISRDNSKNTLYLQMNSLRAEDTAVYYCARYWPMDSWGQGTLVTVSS VL: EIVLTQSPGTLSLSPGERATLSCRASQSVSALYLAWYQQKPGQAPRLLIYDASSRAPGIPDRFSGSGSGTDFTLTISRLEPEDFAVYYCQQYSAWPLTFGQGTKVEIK
0.09

Now take the following binder into account.
Fill in Kd for record COMBO_Rd4_6nM_C21 (antibody, V domains shown, IgG) VH: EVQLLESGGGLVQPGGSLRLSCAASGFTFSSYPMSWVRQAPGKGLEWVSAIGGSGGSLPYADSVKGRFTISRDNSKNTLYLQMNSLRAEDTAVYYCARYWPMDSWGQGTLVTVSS VL: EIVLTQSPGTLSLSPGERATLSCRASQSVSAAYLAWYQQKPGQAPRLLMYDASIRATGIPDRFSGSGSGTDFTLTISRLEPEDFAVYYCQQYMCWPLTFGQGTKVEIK
0.006
